Here, each record is paired with measured IC50 data.
Target: T1, human CD47 (hCD47) expressed on cells (human, UniProt Q08722 19-323)
T1 construct: Transfected CHO cells or endogenous CD47 of human cells; also called CHO-hCD47; CD47 on Raji cells
Assay: flow cytometry, Raji cells, competition with hSIRPα
The reply should contain only the number, in µg/mL.

Some entries whose results are on file:
h20-H3-L2Y (candidate 20.27), hIgG4-S228P (antibody, V domains shown, also called H20-VH3-VL2,Y) VH: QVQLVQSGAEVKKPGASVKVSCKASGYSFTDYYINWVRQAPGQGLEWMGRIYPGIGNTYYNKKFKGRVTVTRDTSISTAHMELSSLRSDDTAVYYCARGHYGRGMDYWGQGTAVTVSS VL: DIVMTQSPDSLAVSLGERATINCKSSQSLLNSIDQKNYLAWYQQKPGQPPKLLIYYASTKESGVPDRFSGSGSGTDFTLTISSLQAEDVAVYYCQQHYSTPWTFGGGTKVEIKR	0.101
h20-H3-L3Y (candidate 20.28), hIgG4-S228P (antibody, V domains shown, also called H20-VH3-VL3,Y) VH: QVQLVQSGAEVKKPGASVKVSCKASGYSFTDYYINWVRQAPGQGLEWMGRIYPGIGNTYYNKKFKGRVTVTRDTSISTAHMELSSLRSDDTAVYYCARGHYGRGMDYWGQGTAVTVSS VL: EIVLTQSPDSLAVSLGERATINCKSSQSLLNSIDQKNYLAWYQQKAGQSPKLLIYYASTKESGVPDRFSGSGSGTDFTLTIDSLQAEDVAVYYCQQHYSTPWTFGGGTKVEIKR	0.17
h20-H4-L5Y (candidate 20.30), hIgG4-S228P (antibody, V domains shown, also called H20-VH4-VL5,Y) VH: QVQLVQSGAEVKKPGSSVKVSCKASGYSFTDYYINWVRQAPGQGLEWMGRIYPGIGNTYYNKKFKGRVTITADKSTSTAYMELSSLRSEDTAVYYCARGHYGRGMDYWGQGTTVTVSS VL: DIVMTQSPDSLAVSLGERATINCKSSQSLLNSIDQKNYLAWYQQKPGQPPKLLIYYASTKESGVPDRFSGSGSGTDFTLTISGLQAEDVAVYFCQQHYSTPWTFGGGTKVEIRR	0.149
h20-H4-L4Y (candidate 20.29), hIgG4-S228P (antibody, V domains shown, also called H20-VH4-VL4,Y) VH: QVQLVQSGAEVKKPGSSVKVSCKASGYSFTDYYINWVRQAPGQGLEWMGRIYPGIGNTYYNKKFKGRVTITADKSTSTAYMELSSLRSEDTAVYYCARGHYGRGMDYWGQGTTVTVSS VL: DIVMTQSPDSLAVSLGERATINCKSSQSLLNSIDQKNYLAWYQQKPGQPPKLLIYYASTKESGVPDRFSGSGSGTDFTLTISSLQAEDVAVYFCQQHYSTPWTFGGGAKVEIKR	0.181

Here is another binder to look at.
The recorded IC50 for entry h20-H2-L5Y (candidate 20.26), huIgG4_S228P format (antibody, V domains shown, also called H20-VH2-VL5,Y; h2O-H2L5Y) VH: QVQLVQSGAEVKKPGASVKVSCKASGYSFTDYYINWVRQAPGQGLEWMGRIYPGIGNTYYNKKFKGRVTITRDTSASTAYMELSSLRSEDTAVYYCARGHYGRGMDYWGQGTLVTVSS VL: DIVMTQSPDSLAVSLGERATINCKSSQSLLNSIDQKNYLAWYQQKPGQPPKLLIYYASTKESGVPDRFSGSGSGTDFTLTISGLQAEDVAVYFCQQHYSTPWTFGGGTKVEIRR equals 0.113
